Biological target: wild-type TAR RNA
Experiment: Solid-phase RNA-peptide binding assay (dissociation constant)
Parameters: species or system HIV-1
Conditions: wild-type TAR RNA, TK buffer, overnight at 4° C.; four independent experiments
Observed property: Kd (nM)
Numeric answer only, unit nM assumed.

Request: Could you share which Kd value was measured for GRKKRRQRRR [Tat peptide, reference compound] ?
Result: 698

----------
Biological target: wild-type TAR RNA
Assay: Solid-phase RNA-peptide binding assay (dissociation constant)
Parameters: species or system HIV-1
Settings: wild-type TAR RNA, TK buffer, overnight at 4° C.; four independent experiments; listed as tripeptide ID#1
Non-standard residues stand in square brackets, D forms with d. Residues, ends and D or L forms follow the SMILES beside them.
Observed property: Kd (nM)
Numeric answer only, unit nM assumed.

Request: Please provide the recorded Kd for NCCCC[C@H](N)C(=O)N[C@H](CCCCN)C(=O)N[C@@H](CC(N)=O)C(=O)O [ID #1, H2N-(L)Lys-(D)Lys-(L)Asn-OH] (H-Lys-[dK]-Asn-OH) , tested on wild-type TAR RNA.
Result: 441
